Assembled from different publications: Ki for Adenosine receptor A2a (Homo sapiens).
propertyName: Ki (µM)

Worked set:
Cn1c(=O)c2c(cc(/C=C/c3cccc(Cl)c3)n2C)n(C)c1=O: 0.43
Nc1c(C(=O)c2ccccc2)oc2ccc(Br)cc12: 2.2
CCCCCCc1nc(N)c2ncn([C@@H]3OC[C@@H](O)[C@H]3O)c2n1: 2.16
Cc1nc(-c2sc(NC(=O)c3ccco3)nc2-c2ccccc2)no1: 0.7
Nc1nc(-c2ccco2)c2cnn(Cc3ccc(N)c(OCCCCCCC(=O)NO)c3)c2n1: 0.015
Cn1c(=O)c2c(cc(/C=C/c3ccc4c(c3)OCO4)n2C)n(C)c1=O: 0.467

[P] CCCn1c(=O)c2[nH]c(-c3ccc(OCC(=O)c4c(NC(=O)O)[nH]c(=O)n(C)c4=O)cc3)cc2n(CCC)c1=O
[Q] O=c1oc2c(O)c(O)ccc2cc1-c1ccc(O)cc1
Hi, I'm comparing two records. Which one has the lower Ki, P or Q ? Answer = label. P
(P: 0.0158 µM, Q: 55.3 µM)

[P] Nc1nc(N/N=C/c2ccc[nH]2)nc2c1ncn2[C@@H]1O[C@H](CO)[C@@H](O)[C@H]1O
[Q] CCCn1c(=O)n(C)c(=O)c2[nH]c(-c3ccc(OCC(=O)N4CCC(c5ccccc5)CC4)cc3)cc21
Which entry shows the lesser value of Ki here, P or Q ? Give the label under which the chosen entry appears. P
(P: 0.0083 µM, Q: 1.02 µM)

[1] CCCn1c(=O)c2[nH]c(-c3ccccc3)c(O)c2n(CCC)c1=O
[2] CCN(CCc1ccc(F)cc1)c1cc2nc(-c3ccco3)nn2c(N)n1
Lab note: record which item had the higher Ki, 1 or 2 . Output the label that corresponds to your choice. 1

[a] C[C@@H](CCOc1nc(N)c2ncn([C@@H]3O[C@H](CO)[C@@H](O)[C@H]3O)c2n1)c1ccccc1
[b] C=CCOc1ccc(CCCn2ncc3c2nc(N)n2nc(-c4ccco4)nc32)cc1
Dear colleague, could you let me know whether a or b has the lower recorded Ki? Thanks. Bench note: the answer is the label of the chosen record. b

====

Published Ki for Adenosine receptor A2a (Homo sapiens), assembled from different documents, is shown next.
propertyName: Ki (nM)

For orientation, consider the following solved cases.
CCCNc1nc(C#Cc2ccc(F)s2)nc2c1ncn2[C@H]1[C@H](O)[C@H](O)[C@]2(C(=O)NC)C[C@H]12: 838
CCN(CC)c1nc2nn(C)cc2c2nc(-c3ccco3)nn12: 798
CC(C)(C)Cn1cc2c(Cl)nc(N)nc2n1: 4100

[1] CC(C)Oc1ccc(-c2cn3c(=O)n(-c4ccccc4)nc3c(N)n2)cc1
[2] Nc1nc(OCCc2cc[nH]c2)nc2c1ncn2[C@@H]1O[C@H](CO)[C@@H](O)[C@H]1O
Of the two listed items, which has the higher Ki? First: 1 Second: 2 Please indicate the selected item by its label. 2

====

Multiple publications report pKi for Adenosine receptor A2a (Homo sapiens, UniProt P29274); what follows is a combined list.
pKi: −log10 of the molar value.
propertyName: pKi

CC(=O)Oc1cccc(-c2nc(C(N)=O)c(N)o2)c1: 4.44

[P] Cn1cc2c(nc(NC3CCCCC3)n3nc(-c4ccco4)nc23)n1
[Q] Nc1ccc2c(O)c(C(=O)NCc3ccc(Cl)cc3)cnc2n1
Would you mind telling me which has the lower recorded pKi between P and Q ? Selection: enter the item's label. Q
(Q: 6.30, P: 6.63)

====

Below are pKi values for Adenosine receptor A2a (Homo sapiens) collected from several publications.
pKi: −log10 of the molar value.
propertyName: pKi

CCCn1c(=O)c2[nH]c(-c3cnn(Cc4noc(-c5ccccc5Cl)n4)c3)nc2n(CCC)c1=O: 5.60

[1] COc1cccc(-c2cc(NC(C)=O)nc(-c3cccc(OC)c3)n2)c1
[2] Cn1cc2c(nc(N(Cc3ccccc3)Cc3ccccc3)n3nc(-c4ccco4)nc23)n1
Hi, I'm comparing two records. Which one has the lower pKi, 1 or 2 ? // return label of chosen record 2
(2: 5.94, 1: 7.31)

[a] Nc1nc(-c2ccc(OCCNC(=O)c3ccc(S(N)(=O)=O)cc3)cc2)cn2c(=O)n(-c3ccccc3)nc12
[b] CCN(C(C)=O)c1ccc(OC)c2nc(NC(=O)[C@@H]3CC[C@H](NC(=O)c4cccc(C(F)(F)F)c4)C3)sc12
[c] COC[C@H]1CCCN1c1cc(N)nc(-n2nc(C)cc2C)n1
Task for the reader: rank each entry by its pKi, from the minimum upward. Return the labels ranked in the requested order, please. c, b, a
(c: 6.58, b: 7.09, a: 8.17)

[1] CC(=O)Nc1cc(N2CCCC2)nc(-n2nc(C)cc2C)n1
[2] Cn1cc2c(nc(NC(=O)C(c3ccccc3)c3ccccc3)n3nc(-c4ccco4)nc23)n1
[3] COCCOc1ccc(N2CCN(CCOc3cc4nc(-c5ccc(Cl)o5)nn4c(N)n3)CC2)cc1
[4] Cn1cc2c(Cl)nc(NC(=O)Cc3ccccc3)nc2n1
[5] CC(C)c1nc(N)c2nc(-n3nccn3)n(C)c2n1
# desc sort on pKi across 5 compounds Reply with the item labels sorted in the order that was asked for. 3, 1, 2, 5, 4
(3: 7.40, 1: 6.96, 2: 6.67, 5: 6.32, 4: 4.52)

[I] COc1cccc(CNc2nc(N)c3nc(C)sc3n2)c1
[II] CCCCC#Cc1nc(NCc2cccc(I)c2)c2ncn([C@H]3[C@H](O)[C@H](O)[C@@H]4C[C@@H]43)c2n1
I'd appreciate it if you could identify which of I and II has the greater pKi. Bench note: the answer is the label of the chosen record. I

====

Literature Ki values, system: Adenosine receptor A2a (Homo sapiens).
Sequence (P29274 whole entry): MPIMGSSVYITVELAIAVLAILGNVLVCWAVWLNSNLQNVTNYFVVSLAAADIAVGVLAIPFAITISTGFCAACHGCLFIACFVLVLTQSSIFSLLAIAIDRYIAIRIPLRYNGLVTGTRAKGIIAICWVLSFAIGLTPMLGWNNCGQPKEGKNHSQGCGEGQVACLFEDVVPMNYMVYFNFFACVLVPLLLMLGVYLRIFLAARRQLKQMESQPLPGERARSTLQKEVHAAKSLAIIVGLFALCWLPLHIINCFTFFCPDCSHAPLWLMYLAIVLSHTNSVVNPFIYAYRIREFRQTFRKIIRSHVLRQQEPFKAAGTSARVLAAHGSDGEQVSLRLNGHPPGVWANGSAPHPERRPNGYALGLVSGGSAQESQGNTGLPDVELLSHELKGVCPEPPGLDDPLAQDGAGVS
propertyName: Ki (nM)

CCn1c(=O)c2[nH]c(Cc3ccco3)nc2n(Cc2ccco2)c1=O: 525

[A] CC(=O)Nc1cc(N2CCC[C@@H]2COc2ccccn2)nc(-n2nc(C)cc2C)n1
[B] COc1ccc(N(C(C)=O)C(F)F)c2sc(NC(=O)c3ccc(F)cc3)nc12
Hello, I am sorting some records. Could you say if A or B has the smaller Ki value? Use the label to indicate which entry you chose. A

====

# merged literature set: Ki with UniProtKB P29274
propertyName: Ki (nM)

Cn1c(=O)cc2c3c(c(N)ccc31)C(=O)c1ccccc1-2: 640

[P] CCCn1c(=O)c2[nH]c(-c3ccc(OCC(=O)Nc4ccccc4F)cc3)c(Cl)c2n(CCC)c1=O
[Q] CC(C)CCn1cc2c(nc(NC(=O)Cc3ccc(F)cc3)n3nc(-c4ccco4)nc23)n1
Of P and Q , whose reported Ki is numerically smaller? Please indicate the selected item by its label. Q
(Q: 3.69 nM, P: 724 nM)

[a] Cn1cc2c(nc(NC(CO)CO)n3nc(-c4ccco4)nc23)n1
[b] Cn1cc2c(nc(NCc3ccc(C(F)(F)F)cc3)n3nc(-c4ccco4)nc23)n1
Decide: a or b , by lowest recorded Ki. Lab note: record the label of whichever item you select. b
(b: 245 nM, a: 597 nM)

====

Please find below Ki measurements for Adenosine receptor A2a (Homo sapiens, UniProt P29274), combined from several publications.
propertyName: Ki (nM)

Cc1[nH]c2nc(-c3ccccc3)nc(N[C@@H]3CCCCNC3=O)c2c1C: 962

[I] CCOC(=O)C(Nc1nc2nn(C)cc2c2nc(-c3ccco3)nn12)c1ccccc1 (racemic)
[II] Nc1ccccc1NC(=O)c1ccc(CCCn2ncc3c2nc(N)n2nc(-c4ccco4)nc32)cc1
Hi there, can you help? I need to know whether I or II has lower measured Ki. # reply format: chosen label II
(II: 3.3 nM, I: 860 nM)

====

Collected from the literature: Ki of various compounds toward Adenosine receptor A2a (Homo sapiens).
propertyName: Ki (nM)

Nc1nc(N2CCN(c3ccc(S(N)(=O)=O)cc3)CC2)nc2sc(-c3ccco3)nc12: 5.73
Nc1nc2cnn(CCc3ccccc3)c2c2nc(-c3ccco3)nn12: 42

[A] CCCCCN(CCCCC)c1nc2nn(C)cc2c2nc(-c3ccco3)nn12
[B] O=C(Nc1ccc(-c2ccncn2)c(-c2ccco2)n1)C1CC1
[C] CNC(=O)c1cnc(NC(=O)NC2CCCCC2)n2nc(-c3ccco3)nc12
Thanks in advance: please rank these 3 entries by Ki, highest to lowest. Arrange the labels as the request states and list them. A, C, B
(A: 7490 nM, C: 1520 nM, B: 239 nM)

====

Values of pKi for Adenosine receptor A2a (Homo sapiens), collected from a number of published sources:
pKi: −log10 of the molar value.
propertyName: pKi

// worked examples, pKi included
Nc1nc(OCCc2ccccc2F)nc2c1ncn2[C@@H]1O[C@H](CO)[C@@H](O)[C@H]1O: 7.24
CCCn1c(=O)c2[nH]c(-c3cnn(Cc4cccc(C)c4)c3)nc2n(CCC)c1=O: 7.18
Nc1nc2nn(CCc3ccccc3)cc2c2nc(-c3ccc(Cl)cc3)nn12: 5.66
COc1cccc(-c2cn3c(=O)n(-c4ccccc4)nc3c(N)n2)c1: 8.17
CCCn1c(=O)c2nc(-c3cnn(Cc4noc(-c5ccccc5OC)n4)c3)[nH]c2n(CCC)c1=O: 5.47

[A] Nc1nc(OCCc2ccccc2)nc2c1ncn2[C@@H]1O[C@H](CO)[C@@H](O)[C@H]1O
[B] CCCCc1nc(/C=N/Nc2nc(N)c3ncn([C@@H]4O[C@H](CO)[C@@H](O)[C@H]4O)c3n2)c(Cl)[nH]1
// pick larger pKi from pair: A vs B Please respond with the label that marks your chosen entry. A
